Recorded z-score values for a group of molecules are listed next.
TARGET: NADPH oxidase 2 (Homo sapiens) (UniProt P04839)
Sequence (P04839 whole entry, looked up): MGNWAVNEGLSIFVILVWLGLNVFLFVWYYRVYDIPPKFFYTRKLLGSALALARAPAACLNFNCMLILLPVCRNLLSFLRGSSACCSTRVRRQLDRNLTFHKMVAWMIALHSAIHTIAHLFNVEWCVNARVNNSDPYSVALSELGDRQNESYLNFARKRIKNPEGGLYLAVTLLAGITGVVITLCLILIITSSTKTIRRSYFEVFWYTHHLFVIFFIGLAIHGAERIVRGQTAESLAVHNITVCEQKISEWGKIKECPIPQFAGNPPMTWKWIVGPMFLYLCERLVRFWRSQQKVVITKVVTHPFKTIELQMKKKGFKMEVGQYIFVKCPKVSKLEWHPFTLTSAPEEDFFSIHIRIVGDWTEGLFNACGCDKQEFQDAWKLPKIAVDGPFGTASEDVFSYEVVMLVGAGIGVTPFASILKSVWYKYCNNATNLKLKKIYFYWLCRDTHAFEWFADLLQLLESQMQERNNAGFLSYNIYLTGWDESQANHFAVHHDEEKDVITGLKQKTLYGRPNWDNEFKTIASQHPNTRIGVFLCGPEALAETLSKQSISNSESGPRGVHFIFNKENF
TEST_DETAILS: NOX2-dependent H2O2 signal modulators, primary screen, NOX inhibitor project, cell-based, HEK293-NOX2, PMA-stimulated, Amplex Red fluorescence (AID 1159); also: test concentration not given here
APPLIED_CONDITIONS: 45 min, higher = more signal, called active from +8 up or from −8 down
Calls of active or inactive are those of the source.
OBSERVATION_TYPE: z-score

SMILES_DATA	TARGET	RECORDED_RESULT
COCCOC(=O)N1C(=O)[C@@]2(c3cc(C#CCNC(N)=O)ccc31)[C@H](c1ccccc1OCCO)N1[C@H](c3ccccc3)[C@H](c3ccccc3)OC(=O)[C@H]1[C@@H]2C(=O)NC[C@H](O)c1ccccc1	NADPH oxidase 2 (Homo sapiens) (UniProt P04839)	1.02 (inactive)
C=C(COC)C(=O)CC[C@H](OC(=O)c1ccccc1-c1ccccc1C(=O)O)c1cccc(OCCO)c1	NADPH oxidase 2 (Homo sapiens) (UniProt P04839)	0.635 (inactive)
CCN1C(C)=C(C(=O)OC)[C@@H](c2ccccc2)N2C(=O)[C@](O)(C(=O)OC)[C@@H](c3ccccc3)C(C(=O)c3ccccc3)=C12	NADPH oxidase 2 (Homo sapiens) (UniProt P04839)	0.6 (inactive)
COC(=O)[C@@]1(Cc2ccccc2)[C@H]2c3cc(C(=O)N4CCCC4)n(CCN4CNCC4=O)c3C[C@H]2CN1C(=O)c1ccccc1	NADPH oxidase 2 (Homo sapiens) (UniProt P04839)	0.122 (inactive)
COc1ccc(C(=O)Nc2ccc(CN3C(=O)[C@]4(O[C@H](CCn5cc(CCO)nn5)[C@@H]([Si](C)(C)c5ccc(OC)cc5)[C@@H]4C)c4ccccc43)cc2)cc1	NADPH oxidase 2 (Homo sapiens) (UniProt P04839)	0.844 (inactive)
[N-]=[N+]=NCc1ccccc1C[C@@]1(C(=O)O)N=C(c2ccc(OCCCO)cc2)O[C@@H]1c1ccccc1N=[N+]=[N-]	NADPH oxidase 2 (Homo sapiens) (UniProt P04839)	-0.0613 (inactive)

###

TEST_DETAILS: HepG2 liver cancer cell viability effects, profiling panel, resazurin fluorescence, 24 h, PK04 Diversity Set (AID 1172); also: test concentration not given here
APPLIED_CONDITIONS: higher = more signal
Could you label it Criterion met if measured z-score is -0.1 or higher, and Criterion not met otherwise?

COMPOUND	DISCRETE_LABEL
O=C1OCC=C[C@H]2OC34C=CCN(Cc5ccccc5)C(=O)[C@H]3N(CCCCCO)C(=O)[C@@H]4[C@@H]12 (stereo partly specified)	Criterion not met
COc1ccc([Si](C)(C)[C@@H]2[C@@H](CC(=O)N(CCO)Cc3ccccc3)O[C@]3(C(=O)N(Cc4cccc(N5CCC5=O)c4)c4ccccc43)[C@H]2C)cc1	Criterion not met
C=CCC(OC(C)=O)[C@@H]1[C@@H](N(Cc2ccc(-c3cccc(C(F)(F)F)c3)o2)C(=O)Cc2ccc(F)cc2)c2cc(OCCCO)ccc2N1C(=O)c1ccc(-c2ccccc2)cc1 (stereo partly specified)	Criterion not met
NC(=O)NCC#Cc1ccc2c(c1)[C@]1(C(=O)N2)[C@H](C(N)=O)[C@H]2C(=O)O[C@H](c3ccccc3)[C@H](c3ccccc3)N2[C@@H]1c1ccccc1OCCO	Criterion met
C#CCCCON=C1C[C@@H](O)[C@@H](O)[C@@H]2[C@@H]3C(=O)N(Cc4ccc5c(c4)OCO5)C(=O)[C@@H]3CC[C@@H]12	Criterion met
C=CCN1C(=O)[C@@]2(O[C@@H](CCn3cc([C@H](O)c4ccccc4)nn3)[C@H]([Si](C)(C)c3ccc(OC)cc3)[C@H]2C)c2cc(N3CCOC3=O)ccc21	Criterion not met
